Origin of values: patent US20230218652A1

assay: Human cells cytotoxicity, A549; type: cell-based; conditions: human, A549 cells (ATCC CCL-185, lung carcinoma epithelial cells), pneumocyte line A549
pIC50: −log10 of the molar value.
readout_type: pIC50

Qu. Record request: pIC50 value, item CC(=O)N[C@H]1[C@H](Oc2ccc(COC(=O)N[C@@H]3[C@H](O)[C@H](O[C@H]4/C=C/C=C/C=C/C=C/C=C/C=C/C=C/[C@H](C)[C@@H](O)[C@@H](C)[C@H](C)OC(=O)C[C@H](O)C[C@H](O)CC[C@@H](O)[C@H](O)C[C@H](O)C[C@]5(O)C[C@H](O)[C@@H](C(=O)O)[C@H](C4)O5)O[C@H](C)[C@H]3O)cc2[N+](=O)[O-])O[C@H](CO)[C@@H](O)[C@@H]1O
Ans. < 4.30
